System: SNB-19 CNS
protocol_notes: NCI tumour cell line growth inhibition, 48 h
Reported values of TGI for individual entries
endpoint_name: TGI

compound	assay_target	test_result
CNC(=O)c1ncccc1Nc1nc(Nc2cc3c(cc2OC)CCCN3C(=O)CN(C)C)nc2[nH]ccc12	SNB-19 CNS	11.2 µM
c1ccc(-c2[nH]ncc2-c2ccnc(-c3ccc(OCCn4ccnc4)cc3)c2)nc1	SNB-19 CNS	> 25 µM
CN1CSC(=S)N(c2cccc(C(F)(F)F)c2)C1	SNB-19 CNS	61 µM
Cc1ccc2c(-c3ccnc(Nc4ccc5c(c4)OCCO5)n3)c(-c3ccc(C(F)(F)F)cc3)nn2n1	SNB-19 CNS	> 25 µM
COc1cc(C)c(CC/C(C)=C/Cc2cc(O)ccc2O)c(C)c1C	SNB-19 CNS	> 25 µM
Cc1c2cccc-2c2cc(O)c3ccccc3c2n1-c1ccc(N(C)C)cc1	SNB-19 CNS	30 µM
S=C(Cc1ccc2c(c1)Sc1ccccc1O2)N1CCOCC1	SNB-19 CNS	> 100 µM
COC(=O)CNC(=O)C(CSC(=O)OCC1c2ccccc2-c2ccccc21)NC(=O)CCC(NC(=O)OCC1c2ccccc2-c2ccccc21)C(=O)OC (centres undefined)	SNB-19 CNS	68.1 µM
COc1ccc(N=Nc2c(-c3c(OC)cc4occc4c3OC)[nH]c(=O)c(C#N)c2C)cc1	SNB-19 CNS	> 100 µM
FC(F)(F)Oc1cccc(-c2cc(NCCCCCCNc3cc(-c4cccc(OC(F)(F)F)c4)nc4ccc(N5CCCC5)cc34)c3cc(N4CCCC4)ccc3n2)c1	SNB-19 CNS	2.98 µM
COCC([C@@H](O)C(O)C(=O)NCC[C@@H](C)c1nc(/C=C/CC2OC3(C[C@H](O)C2C)OC(C(C[C@H](O)C(C)[C@H](O)C(C)/C=C(C)/C(C)=C/C=C/C(C)=C/C#N)OC)[C@@H](OP(=O)(O)O)C3(C)C)co1)N(C)C (some centres undefined)	SNB-19 CNS	0.000343 µM
COc1ccc2c(c1)C(=O)c1c-2c(Nc2ccccc2OC)nc2ccccc12	SNB-19 CNS	> 100 µM
CC1=N/C(=C\c2ccc(/C=C3/N=C(C)OC3=O)cc2)C(=O)O1	SNB-19 CNS	> 100 µM
NCCN1CCCCCc2ccccc21	SNB-19 CNS	> 10 µM
OCc1cc2c(cn1)[nH]c1ccc(NCc3ccccc3)cc12	SNB-19 CNS	> 100 µM
COc1cc2c(N3CCN(C(=O)Nc4ccc(OC(C)C)cc4)CC3)ncnc2cc1OCCCN1CCCCC1	SNB-19 CNS	> 100 µM
O=[N+]([O-])c1ccccc1C1SCc2nc3ccccc3n21 (centres undefined)	SNB-19 CNS	> 100 µM
COc1ccc(CNc2cnc3ccc(N)cc3n2)cc1	SNB-19 CNS	> 100 µM
O=c1ccc2ccc(S)cc2o1	SNB-19 CNS	> 100 µM

====

Reported values of TGI for individual entries
Test system: COLO 205 colon
protocol_notes: NCI tumour cell line growth inhibition, 48 h

molecule	censor_symbol	TGI (µM)
O=C(/C=C/c1ccc(O)c(O)c1)OCCc1ccc2ccccc2c1	=	16.4
COc1cc2c(cc1Nc1nc(N3CCc4ccccc43)c3cc[nH]c3n1)N(C(=O)CN(C)C)CC2	=	14.3
c1ccc(-c2[nH]ncc2-c2ccnc(-c3ccc(OCCn4ccnc4)cc3)c2)nc1	>	25
O=c1oc2ccc3ccccc3c2cc1-c1cn2ccsc2n1	=	33.3
COc1cc(CNc2nc3cc(N)cc(N)c3nc2-c2ccccc2)cc(OC)c1	=	6.04
Cc1ccc2c(c1)CN1c3ccc(C)cc3CN2C1c1ccccc1O	>	100
CCOC(=O)c1c(N2CCCC2)[nH]c(=O)c(C(c2ccc(OC)cc2)c2c(O)c(C(=O)OCC)c(N3CCCC3)[nH]c2=O)c1O	>	100
O=c1c(F)cn2c(=O)n1CCCCCCCn1c(=O)c(F)cn(c1=O)CCCCCCC2	>	100
COc1ccc(CNc2cnc3ccc(N)cc3n2)cc1	=	34.6
c1ccc(C2=NC3OC2c2ccccc23)cc1 (configuration not stated)	>	10
CN(C)C(=O)C(F)(F)C(c1ccc(F)cc1)C1C(=O)N(C)C(=O)N(C)C1=O (configuration not stated)	>	100
COCC([C@@H](O)C(O)C(=O)NCC[C@@H](C)c1nc(/C=C/CC2OC3(C[C@H](O)C2C)OC(C(C[C@H](O)C(C)[C@H](O)C(C)/C=C(C)/C(C)=C/C=C/C(C)=C/C#N)OC)[C@@H](OP(=O)(O)O)C3(C)C)co1)N(C)C (some centres not stated)	=	0.000309
Cn1nc(-c2ccc(S(=O)(=O)/N=C(\NN)Nc3ccc(Cl)cc3)s2)cc1C(F)(F)F	=	37.6
COc1ccc(OC)c(/C=C/c2nc(=S)n(-c3ccc(Cl)cc3)[nH]2)c1	=	68.4
C[C@]12Cc3cn[nH]c3C(=O)C1CC[C@@H]1C2CC[C@@]2(C)C1CC[C@@H]2O (some centres not stated)	>	100
Cn1nccc1Nc1nccc(-c2ccn([C@H](CO)c3ccc(Cl)c(F)c3)c(=O)c2)n1	=	16.7
COc1cc(Nc2cnc3ccc(C(F)(F)F)cc3n2)cc(OC)c1OC	>	100
C[n+]1cc2cc(O)c(O)cc2c2ccc3cc(O)c(O)cc3c21	>	84.5
CCNc1nc(O)c(/C=C2\C=Nc3ncccc32)s1	=	13
O=C(CCc1cc(O)cc(O)c1)NCCc1cc(OCc2ccccc2)cc(OCc2ccccc2)c1	=	44.3
N#CC1(c2ccc(NC(=O)c3cccnc3NCc3ccncc3)cc2)CCCC1	=	33.5
CC(=O)O[C@H]1C(=O)[C@@]2(C)C([C@H](OC(=O)c3ccccc3)[C@]3(O)C[C@H](OC(=O)[C@H](O)[C@@H](NC(=O)c4ccccc4)c4ccccc4)C(C)=C1C3(C)C)[C@]1(OC(C)=O)CO[C@@H]1C[C@@H]2O (some centres not stated)	=	0.0246
COc1ccc2nc(NC(=O)/C(C#N)=C/c3ccccc3)sc2c1	>	100
Cc1ccc(S(=O)(=O)OCC/C(=C\[Si](C)(C)C)c2ccccc2)cc1	>	100
C[C@]12CC[C@H]3[C@@H](CCC4=CC(=O)CC[C@@]43C)[C@@H]1CC[C@@H]2c1csc(N)n1	=	14.2
Cc1c2cccc-2c2cc(O)c3ccccc3c2n1-c1ccc(N(C)C)cc1	=	32.6
OCc1cn(Cc2ccccc2)c2ccccc12	=	13.6
Cc1c(C)n(-c2ccccc2)c2nc(S(C)=O)nc(S(C)=O)c12 (configuration not stated)	=	3.41
O=C(OCc1ccc2c(Br)cc(Br)c(O)c2n1)c1cc2ccccc2[nH]1	=	1.84
COC(=O)/C=C(/C=C1/C(C#N)=C(N)N(c2ccc(Cl)cc2)C1(C)/C(=C\C(=O)OC)C(=O)OC)C(=O)OC (configuration not stated)	=	29.8
CCOC1C=CC(=O)C(CO)O1 (configuration not stated)	=	30.4
CC(C)Oc1cccc(N2C(n3ccnc3)=Nc3ccncc3S2(=O)=O)c1	=	24.7
O=C1NC2=C(CCCCC/C2=N\O)C12CCCCCC2	>	100
CCc1ccccc1NC(=O)c1cccc([N+](=O)[O-])c1O	=	31.4
CNCc1cccc2c1OCCOCCOCCN(C)S(=O)(=O)c1ccc(cc1)-c1cnc(N)c(n1)C(=O)N2	=	3.23
CC1CC(N2CCOCC2)=Nc2ccccc2N1C (configuration not stated)	>	100
CSCC[C@@H](NC(=O)[C@H](CC(C)C)NC(=O)C(Cc1cnc[nH]1)NC(=O)CNC(=O)[C@@H](NC(=O)[C@H](C)NC(=O)[C@H](Cc1c[nH]c2ccccc12)NC(=O)[C@H](CCC(N)=O)NC(=O)[C@@H](N)CC(N)=O)C(C)C)C(N)=O (some centres not stated)	>	100

Cited source: PubChem BioAssay (NCI)
